Provenance of the data: paper PMC8778681

method summary: Solubility experiment in simulated gastrointestinal fluid
Assay type: physicochemical
run parameters: fassgf or other biorelevant, thermodynamic from solid; simulated gastrointestinal fluid pH 6.8, 37 °C, 100 rpm; HES–PIP maximum at 6 h
Protocol: The solubility of the HES–PIP cocrystal in simulated gastrointestinal fluid was measured in the present study following the method described in the literature but slightly modified. […] Taking a tube at 0.25 h, 0.5 h, 1 h, 2 h, 4 h, 6 h, 8 h, 12 h, 24 h, and 48 h, the samples were centrifuged at 12,000 rpm for 5 min, and the supernatant was diluted with methanol and analyzed by HPLC. […] The residual solid in each tube was also analyzed by PXRD. […]
measured endpoint: solubility (µg/mL)

[[record]]
smiles_repr = "COc1ccc([C@@H]2CC(=O)c3c(O)cc(O)cc3O2)cc1O"
measured_value = 21.1

